Target: TXA2 receptor (Homo sapiens)
Construct: The human platelet membrane fraction was prepared in accordance with Experiment 1 (1); from tissue; host or cells: human platelet membrane fraction from blood of healthy volunteers
Sequence (P21731 1-343): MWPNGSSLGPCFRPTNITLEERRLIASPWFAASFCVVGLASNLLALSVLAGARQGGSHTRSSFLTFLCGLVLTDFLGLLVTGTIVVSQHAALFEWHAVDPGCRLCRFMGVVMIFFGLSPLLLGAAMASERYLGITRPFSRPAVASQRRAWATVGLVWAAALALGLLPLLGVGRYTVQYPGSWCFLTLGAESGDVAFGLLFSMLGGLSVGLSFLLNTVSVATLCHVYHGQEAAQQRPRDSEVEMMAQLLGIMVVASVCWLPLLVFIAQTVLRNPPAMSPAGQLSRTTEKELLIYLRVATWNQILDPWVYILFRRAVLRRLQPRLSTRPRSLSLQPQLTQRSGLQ
Assay: Binding activity to TXA2 receptor in human platelet membrane fraction ([3H](+)-S-145 sodium salt)
Conditions: 2 nM [3H](+)-S-145 sodium salt, room temperature, 90 min; read-out: Binding activity to TXA2 receptor in human platelet membrane fraction IC50
pIC50: −log10 of the molar value.
readout.type: pIC50

Here are 4 compounds together with their reported answers.
> print(dat)
                                   compound             system.under.test  readout.type  result
1  O=C(O)CCCC=CCC1C2CCC(C2)C1NC(=O)c1ccc(CSc2cccs2)s1 (centres unmarked)  TXA2 receptor (Homo sapiens)         pIC50    7.41
2  O=C(O)CCCC=CCC1C2CCC(C2)C1NC(=O)c1ccc(Sc2ccsc2)s1 (centres unmarked)  TXA2 receptor (Homo sapiens)         pIC50    7.82
3  CC1(C)C2CC(CC=CCCCC(=O)O)C(NC(=O)c3ccc(S(=O)(=O)c4cccs4)s3)C1C2 (centres unmarked)  TXA2 receptor (Homo sapiens)         pIC50    8.44
4  CC1(C)C2CC(CC=CCCCC(=O)O)C(NC(=O)c3ccc(Sc4cccs4)s3)C1C2 (centres unmarked)  TXA2 receptor (Homo sapiens)         pIC50    7.85

[I] O=C(O)CCCC=CCC1C2CCC(C2)C1NC(=O)c1ccc(Cc2cc3ccccc3o2)s1 (centres unmarked)
[II] O=C(O)CCCC=CCC1C2CCC(C2)C1NC(=O)c1ccn(S(=O)(=O)c2cccs2)c1 (centres unmarked)
Input: Consider I and II . Which of these has its pIC50 at a higher number? Return value: the label identifying the chosen record.
Output: I

[a] O=C(O)CCCC=CCC1C2CCC(C2)C1NC(=O)c1ccc(Cc2cccs2)s1 (centres unmarked)
[b] O=C(O)CCCC=CCC1C2CCC(C2)C1NC(=O)c1ccc(S(=O)(=O)c2ccsc2)s1 (centres unmarked)
Input: Looking only at measured pIC50, which entry is lower, a or b ? Return value: the label identifying the chosen record.
Output: a

Data provenance is patent US7105564B1.
